Listing of entries alongside the reported CRE.
species: Rattus norvegicus; test: Open TG-GATES - Regimen: Daily Repeat; type: toxicity, organism-based, Sprague-Dawley; parameters: regimen Daily Repeat, gender Male, age 6 weeks; details: in vivo, po, 0 mg/kg, […], tissue Plasma, route gavage, dose level Control, time 28 day
Enter your answer as a number in mg/dL; do not include the unit.

C[C@]12CCC(=O)C=C1CC[C@@H]1[C@@H]2CC[C@@]2(C)[C@H]1CC[C@]2(C)O    0.2
Nc1nc(N)c2nc(-c3ccccc3)c(N)nc2n1    0.2
CC(=N)S [THIOACETAMIDE]    0.6

Exercise: State its CRE for this compound: C[C@](N)(Cc1ccc(O)c(O)c1)C(=O)O
Solution: 0.2

Exercise: Provide only the value of recorded CRE for CCSCC[C@H](N)C(=O)O
Solution: 0.5

====

Items are presented alongside their recorded KIDNEY_TOTAL.
organism: Rattus norvegicus; assay: Open TG-GATES - Regimen: Single; assay type: toxicity, organism-based, Sprague-Dawley; set-up: regimen Single, gender Male, age 6 weeks; conditions: in vivo, po, 0 mg/kg, 24 h, tissue Kidney, route gavage, dose level Control
Write down the numeric answer in g and omit the unit.

CC(=O)Oc1cc(C(C)C)c(OCCN(C)C)cc1C    1.9
CC(C)C(=O)Nc1ccc([N+](=O)[O-])c(C(F)(F)F)c1 [FLUTAMIDE]    1.9
CC(C)(S)[C@@H](N)C(=O)O    1.8
CN1C(=O)OC(C)(C)C1=O    1.9

Proceeding to the next molecule to report its KIDNEY_TOTAL.
Exercise: Input O=C(N[C@H](CO)[C@H](O)c1ccc([N+](=O)[O-])cc1)C(Cl)Cl , output reported KIDNEY_TOTAL.
Solution: 2

====

species: Rattus norvegicus; assay: Open TG-GATES - Regimen: Single; assay type: toxicity, organism-based, Sprague-Dawley; parameters: regimen Single, gender Male, age 6 weeks; conditions: in vivo, po, 0 mg/kg, 9 h, tissue Plasma, route gavage, dose level Control
Decision: ALT compared against 40 IU/L; not below it gives true, below it gives false.

Reference set (3 entries):
Nc1nc(N)c2nc(-c3ccccc3)c(N)nc2n1    false
O=C(O)c1cccnc1    false
CC(=N)S [THIOACETAMIDE]    false

Exercise: Does ALT meet or surpass 40 IU/L for CCSCC[C@H](N)C(=O)O ?
Solution: false

Exercise: Given the entry C[C@](N)(Cc1ccc(O)c(O)c1)C(=O)O , answer whether its ALT meets or surpasses 40 IU/L.
Solution: true

Exercise: Test whether the molecule Oc1ncnc2[nH]ncc12 records ALT of 40 IU/L or higher.
Solution: false

====

organism: Rattus norvegicus; experiment: Open TG-GATES - Regimen: Daily Repeat; type: toxicity, organism-based, Sprague-Dawley; parameters: regimen Daily Repeat, gender Male, age 6 weeks; settings: in vivo, po, 0 mg/kg, […], tissue Blood, route gavage, dose level Control, time 14 day
RESULT TYPE: Ret (%)
Record the value in %, omitting the unit from your answer.

Study these solved cases before continuing.
CC(=O)Oc1cc(C(C)C)c(OCCN(C)C)cc1C    5
CCc1oc2ccccc2c1C(=O)c1cc(I)c(O)c(I)c1    3.1
CC(=N)S [THIOACETAMIDE]    4.5
Oc1ncnc2[nH]ncc12    3.7
CC(C)C(=O)Nc1ccc([N+](=O)[O-])c(C(F)(F)F)c1 [FLUTAMIDE]    4.3
O=C(N[C@H](CO)[C@H](O)c1ccc([N+](=O)[O-])cc1)C(Cl)Cl    3.8
C[C@](N)(Cc1ccc(O)c(O)c1)C(=O)O    4.8
CCC(C)(C)C(=O)O[C@H]1C[C@@H](C)C=C2C=C[C@H](C)[C@H](CC[C@@H]3C[C@@H](O)CC(=O)O3)[C@H]21    6.2
CC(C)(S)[C@@H](N)C(=O)O    4.5
CN1C(=O)OC(C)(C)C1=O    4.4

Lab note: next molecule to report on.
Exercise: Could you please provide reported Ret for O=C(O)c1cccnc1 ? Thanks!
Solution: 5.1

====

organism: Rattus norvegicus; assay: Open TG-GATES - Regimen: Daily Repeat; type: toxicity, organism-based, Sprague-Dawley; set-up: regimen Daily Repeat, gender Male, age 6 weeks; settings: in vivo, po, 300 mg/kg, […], tissue Plasma, route gavage, dose level Middle, time 7 day
Readings of ALP for the listed compounds
Form entry: value (IU/L) — number only.

Consider the reported ALP for these compounds:
O=C(N[C@H](CO)[C@H](O)c1ccc([N+](=O)[O-])cc1)C(Cl)Cl    1464.2
O=C(O)c1cccnc1    1661

Shifting focus to the compound that follows.
Exercise: Return ALP for the following compound: CCN1CCCC1CNC(=O)c1cc(S(N)(=O)=O)ccc1OC (stereo not drawn) [SULPIRIDE]
Solution: 1497.6

====

species: Rattus norvegicus; assay: Open TG-GATES - Regimen: Single; format: toxicity, organism-based, Sprague-Dawley; set-up: regimen Single, gender Male, age 6 weeks; conditions: in vivo, po, 0 mg/kg, 3 h, tissue Plasma, route gavage, dose level Control
RESULT TYPE: AST (IU/L)
Express the result in IU/L but write the number alone.

Here are 3 compounds together with their reported answers.
C[C@](N)(Cc1ccc(O)c(O)c1)C(=O)O    84.8
CC(C)(S)[C@@H](N)C(=O)O    75.2
CCc1oc2ccccc2c1C(=O)c1cc(I)c(O)c(I)c1    64

# next compound below
Exercise: Provide only the value of recorded AST for CCC(C)(C)C(=O)O[C@H]1C[C@@H](C)C=C2C=C[C@H](C)[C@H](CC[C@@H]3C[C@@H](O)CC(=O)O3)[C@H]21
Solution: 61.6

====

Catalogue of compounds with associated Mono
species: Rattus norvegicus; assay: Open TG-GATES - Regimen: Daily Repeat; type: toxicity, organism-based, Sprague-Dawley; set-up: regimen Daily Repeat, gender Male, age 6 weeks; details: in vivo, po, 0 mg/kg, 72 h, tissue Blood, route gavage, dose level Control, time 3 day
Write the number in % without appending the unit.

O=C(N[C@H](CO)[C@H](O)c1ccc([N+](=O)[O-])cc1)C(Cl)Cl [CHLORAMPHENICOL]    3
Oc1ncnc2[nH]ncc12 [ALLOPURINOL]    11.6
CC(=O)Oc1cc(C(C)C)c(OCCN(C)C)cc1C [MOXISYLYTE]    2.4
O=C(O)c1cccnc1 [NIACIN]    3
CCc1oc2ccccc2c1C(=O)c1cc(I)c(O)c(I)c1 [BENZIODARONE]    7

Exercise: Using the record for CCSCC[C@H](N)C(=O)O [ETHIONINE] , state its measured Mono.
Solution: 3

====

Reported Neu values for a set of compounds
species: Rattus norvegicus; assay: Open TG-GATES - Regimen: Daily Repeat; format: toxicity, organism-based, Sprague-Dawley; design: regimen Daily Repeat, gender Male, age 6 weeks; settings: in vivo, po, 0 mg/kg, […], tissue Blood, route gavage, dose level Control, time 7 day
Give the figure together with its unit, number first.

// worked examples, Neu included
CCSCC[C@H](N)C(=O)O [ETHIONINE]    16.6%
CC(C)(S)[C@@H](N)C(=O)O [PENICILLAMINE]    22.4%
O=C(N[C@H](CO)[C@H](O)c1ccc([N+](=O)[O-])cc1)C(Cl)Cl [CHLORAMPHENICOL]    18.2%
C[C@]12CCC(=O)C=C1CC[C@@H]1[C@@H]2CC[C@@]2(C)[C@H]1CC[C@]2(C)O [METHYLTESTOSTERONE]    15%

Moving on to the next compound.
Exercise: Provide only the value of recorded Neu for CC(=O)Oc1cc(C(C)C)c(OCCN(C)C)cc1C [MOXISYLYTE]
Solution: 15%

====

Listed here: items and their measured Plat.
species on record: Rattus norvegicus; assay: Open TG-GATES - Regimen: Single; type: toxicity, organism-based, Sprague-Dawley; parameters: regimen Single, gender Male, age 6 weeks; conditions: in vivo, po, 0 mg/kg, 9 h, tissue Blood, route gavage, dose level Control
Reply numerically in x10_4/uL, unit not repeated.

Field: example entries. Status: answers known.
C[C@]12CCC(=O)C=C1CC[C@@H]1[C@@H]2CC[C@@]2(C)[C@H]1CC[C@]2(C)O    108.1
O=C(O)c1cccnc1    119.2
CCN1CCCC1CNC(=O)c1cc(S(N)(=O)=O)ccc1OC (centres undefined) [SULPIRIDE]    126.7

Exercise: Please list Plat recorded for the compound C#C[C@]1(O)CC[C@H]2[C@@H]3CCc4cc(O)ccc4[C@H]3CC[C@@]21C
Solution: 119.3

Exercise: # return recorded Plat for entry CCSCC[C@H](N)C(=O)O
Solution: 123.8

Exercise: Specify reported Plat for the compound shown: CC(=O)Oc1cc(C(C)C)c(OCCN(C)C)cc1C
Solution: 114.1

Exercise: Check the records and state Plat for O=C(N[C@H](CO)[C@H](O)c1ccc([N+](=O)[O-])cc1)C(Cl)Cl
Solution: 114.3

Exercise: Using the record for CC(C)C(=O)Nc1ccc([N+](=O)[O-])c(C(F)(F)F)c1 [FLUTAMIDE] , state its measured Plat.
Solution: 128.5

Exercise: For the compound C[C@](N)(Cc1ccc(O)c(O)c1)C(=O)O , give its measured Plat value.
Solution: 112.1
